Overview of reported drug sensitivity score across a group of molecules:
# Tested on: normal primary NK cells, pool 2 (3 donors) (IL-2 2.5 ng/mL)
# assay_details: drug sensitivity score (DSS) (DSS units); higher = more sensitive; extreme values may be limits of the assay
# measurement_setup: 72 h
Give the value as a plain number.

Some molecules with known drug sensitivity score results, for comparison:
molecule: Nc1cc(F)ccc1NC(=O)/C=C/c1cnn(C/C=C/c2ccccc2)c1 [RGFP966] (max concentration tested 10000 nM)
test_target: normal primary NK cells, pool 2 (3 donors) (IL-2 2.5 ng/mL)
readout_type: drug sensitivity score
endpoint_result: 0
//
molecule: COc1cc(N2CCN(C)CC2)ccc1Nc1nccc(-c2cn(C)c3cnccc23)n1 [AZ191] (max concentration tested 10000 nM)
test_target: normal primary NK cells, pool 2 (3 donors) (IL-2 2.5 ng/mL)
readout_type: drug sensitivity score
endpoint_result: 4.59
//
molecule: C/C(=C\c1csc(C)n1)[C@@H]1C[C@@H]2O[C@]2(C)CCC[C@H](C)[C@H](O)[C@@H](C)C(=O)C(C)(C)[C@@H](O)CC(=O)N1 [Ixabepilone] (max concentration tested 1000 nM)
test_target: normal primary NK cells, pool 2 (3 donors) (IL-2 2.5 ng/mL)
readout_type: drug sensitivity score
endpoint_result: 0
//
molecule: COc1ccc(-c2ccc3c(N4CCOC[C@@H]4C)nc(N4CCOC[C@@H]4C)nc3n2)cc1CO [AZD8055] (max concentration tested 10000 nM)
test_target: normal primary NK cells, pool 2 (3 donors) (IL-2 2.5 ng/mL)
readout_type: drug sensitivity score
endpoint_result: 4.67
//
molecule: COc1cc(Nc2c(C#N)cnc3cc(OCCCN4CCN(C)CC4)c(OC)cc23)c(Cl)cc1Cl [Bosutinib] (max concentration tested 10000 nM)
test_target: normal primary NK cells, pool 2 (3 donors) (IL-2 2.5 ng/mL)
readout_type: drug sensitivity score
endpoint_result: 9.3
//
molecule: O=C(CCBr)N1CCN(C(=O)CCBr)CC1 [Pipobroman] (max concentration tested 10000 nM)
test_target: normal primary NK cells, pool 2 (3 donors) (IL-2 2.5 ng/mL)
readout_type: drug sensitivity score
endpoint_result: 0

Qu. Which drug sensitivity score reading was recorded for the molecule CO[C@H]1C[C@@H]2CC[C@@H](C)[C@@](O)(O2)C(=O)C(=O)N2CCCC[C@H]2C(=O)O[C@H]([C@H](C)C[C@@H]2CC[C@@H](O)[C@H](OC)C2)CC(=O)[C@H](C)/C=C(\C)[C@@H](O)[C@@H](OC)C(=O)[C@H](C)C[C@H](C)/C=C/C=C/C=C/1C [Sirolimus] (max concentration tested 100 nM) ?
Ans. 3.82

Qu. CCC1=C[C@@H]2CN(C1)Cc1c([nH]c3ccccc13)[C@@](C(=O)OC)(c1cc3c(cc1OC)N(C)[C@H]1[C@@](O)(C(=O)OC)[C@H](OC(C)=O)[C@]4(CC)C=CCN5CC[C@]31[C@@H]54)C2 [Vinorelbine] (max concentration tested 10000 nM) ?
Ans. 3.94

Qu. CCC/C=C/C=C/C(=O)O[C@H]1/C(=C/C(=O)OC)C[C@H]2C[C@H]([C@@H](C)O)OC(=O)C[C@H](O)C[C@@H]3C[C@H](OC(C)=O)C(C)(C)[C@](O)(C[C@@H]4C/C(=C/C(=O)OC)C[C@H](/C=C/C(C)(C)[C@]1(O)O2)O4)O3 [Bryostatin 1] (max concentration tested 100 nM) ?
Ans. 0

Qu. COc1ccc(S(=O)(=O)Nc2cccnc2Nc2ccc(O)cc2)cc1 [ABT-751] (max concentration tested 10000 nM) ?
Ans. 0.52

Qu. Nc1nc(NC2CC2)cc(-c2cccc(Cl)c2Cl)n1 [TH588] (max concentration tested 25000 nM) ?
Ans. 2.06

Qu. Cc1c(Cn2c(C)nc3c(C(=O)O)cc(N4CCOCC4)cc32)cccc1C(F)(F)F (max concentration tested 10000 nM) ?
Ans. 0.23

Qu. CN(C)/N=N/c1[nH]cnc1C(N)=O [Dacarbazine] (max concentration tested 10000 nM) ?
Ans. 0

----------
# Test system: NKL (IL-2 2.5 ng/mL)
# assay_details: percent inhibition of viability; higher = more inhibition
# measurement_setup: 72 h; 1000 nM
Overview of reported percent inhibition of viability across a group of compounds:
Value expressed in %; do not type the unit.

Some compounds with known percent inhibition of viability results, for comparison:
compound: COc1ccc(-c2cc3c(C)nc(N)nc3n([C@H]3CC[C@H](OCCO)CC3)c2=O)cn1 (max concentration tested 10000 nM)
readout_type: percent inhibition of viability
endpoint_result: 66.2
//
compound: COc1cc2c(N3CCN(C(=O)Nc4ccc(OC(C)C)cc4)CC3)ncnc2cc1OCCCN1CCCCC1 [Tandutinib] (max concentration tested 1000 nM)
readout_type: percent inhibition of viability
endpoint_result: 7.53
//
compound: C[C@@H](Oc1cc(-c2cnn(C3CCNCC3)c2)cnc1N)c1c(Cl)ccc(F)c1Cl [Crizotinib] (max concentration tested 1000 nM)
readout_type: percent inhibition of viability
endpoint_result: 43.3
//
compound: Clc1ccccc1C(c1ccccc1)(c1ccccc1)n1cccn1 [TRAM-34] (max concentration tested 1000 nM)
readout_type: percent inhibition of viability
endpoint_result: 5.01
//
compound: COc1cc(Nc2c(C#N)cnc3cc(OCCCN4CCN(C)CC4)c(OC)cc23)c(Cl)cc1Cl [Bosutinib] (max concentration tested 10000 nM)
readout_type: percent inhibition of viability
endpoint_result: 0.83

Turning now to a further compound:
Qu. Which percent inhibition of viability reading was recorded for the compound O=C(NOCC1CC1)c1ccc(F)c(F)c1Nc1ccc(I)cc1Cl (max concentration tested 10000 nM) ?
Ans. 57.9

----------
# Tested on: NKL (IL-2 2.5 ng/mL)
# assay_details: percent inhibition of viability; higher = more inhibition
# measurement_setup: 72 h; 0.1 nM
readout_type: percent inhibition of viability (%)
Value expressed in %; do not type the unit.

Some compounds with known percent inhibition of viability results, for comparison:
compound: CC(C)n1nc(-c2ccc3oc(N)nc3c2)c2c(N)ncnc21 [INK128] (max concentration tested 1000 nM)
test_target: NKL (IL-2 2.5 ng/mL)
readout_type: percent inhibition of viability
endpoint_result: 0.39

compound: CNC(=O)c1ccc(C)c(-n2c(C)cc(OCc3ccc(F)cc3F)c(Br)c2=O)c1 (max concentration tested 1000 nM)
test_target: NKL (IL-2 2.5 ng/mL)
readout_type: percent inhibition of viability
endpoint_result: -10.5

Qu. Which percent inhibition of viability reading was recorded for the compound O=C(NOC[C@H](O)CO)c1ccc(F)c(F)c1Nc1ccc(I)cc1F (max concentration tested 1000 nM) ?
Ans. -14.2

Qu. Clc1ccccc1C(c1ccccc1)(c1ccccc1)n1cccn1 [TRAM-34] (max concentration tested 1000 nM) ?
Ans. -1.68

----------
# Tested on: SNK-6 (IL-2 2.5 ng/mL)
# assay_details: percent inhibition of viability; higher = more inhibition
# measurement_setup: 72 h; 10 nM
Overview of reported percent inhibition of viability across a group of molecules:
Value expressed in %; do not type the unit.

Some molecules with known percent inhibition of viability results, for comparison:
molecule: Cc1cc(Nc2cc(N3CCN(C)CC3)nc(/C=C/c3ccccc3)n2)n[nH]1 [ENMD-2076] (max concentration tested 10000 nM)
test_target: SNK-6 (IL-2 2.5 ng/mL)
percent inhibition of viability, %: 2.27

molecule: CO[C@@]12[C@H](COC(N)=O)C3=C(C(=O)C(C)=C(N)C3=O)N1C[C@@H]1N[C@@H]12 [Mitomycin C] (max concentration tested 10000 nM)
test_target: SNK-6 (IL-2 2.5 ng/mL)
percent inhibition of viability, %: -22.7

molecule: CC(C)n1nc(-c2ccc3oc(N)nc3c2)c2c(N)ncnc21 [INK128] (max concentration tested 1000 nM)
test_target: SNK-6 (IL-2 2.5 ng/mL)
percent inhibition of viability, %: 15.8

molecule: Cc1ccc(NC(=O)c2ccc(CN3CCN(C)CC3)cc2)cc1Nc1nccc(-c2cccnc2)n1 [Imatinib] (max concentration tested 10000 nM)
test_target: SNK-6 (IL-2 2.5 ng/mL)
percent inhibition of viability, %: -11

molecule: CNNCc1ccc(C(=O)NC(C)C)cc1 [Procarbazine] (max concentration tested 10000 nM)
test_target: SNK-6 (IL-2 2.5 ng/mL)
percent inhibition of viability, %: 12.4

Turning now to a further molecule:
Qu. Which percent inhibition of viability reading was recorded for the molecule O=NN(CCCl)C(=O)NC1CCCCC1 [Lomustine] (max concentration tested 10000 nM) ?
Ans. 20.4

----------
# System: normal primary NK cells, pool 2 (3 donors) (IL-2 2.5 ng/mL)
# assay_details: percent inhibition of viability; higher = more inhibition
# measurement_setup: 72 h; 10000 nM
Category | rule: reported percent inhibition of viability within range, see Low: < 10%; Medium: ≥ 10% and < 70%; High: ≥ 70%

compound: Cn1nnc2c(C(N)=O)ncn2c1=O [Temozolomide] (max concentration tested 100000 nM)
test_target: normal primary NK cells, pool 2 (3 donors) (IL-2 2.5 ng/mL)
class_label: Medium
--
compound: Cc1c(NC(=O)OC[C@@H]2COCCN2)cn2ncnc(Nc3ccc4c(cnn4Cc4cccc(F)c4)c3)c12 (max concentration tested 10000 nM)
test_target: normal primary NK cells, pool 2 (3 donors) (IL-2 2.5 ng/mL)
class_label: Medium
--
compound: Cn1cncc1[C@@](N)(c1ccc(Cl)cc1)c1ccc2c(c1)c(-c1cccc(Cl)c1)cc(=O)n2C [Tipifarnib] (max concentration tested 10000 nM)
test_target: normal primary NK cells, pool 2 (3 donors) (IL-2 2.5 ng/mL)
class_label: High
--
compound: CCc1cc(Nc2nccc(-c3c(-c4ccc(OC)c(C(=O)Nc5c(F)cccc5F)c4)nc4ccccn34)n2)c(OC)cc1N1CCC(N2CCN(S(C)(=O)=O)CC2)CC1 (max concentration tested 10000 nM)
test_target: normal primary NK cells, pool 2 (3 donors) (IL-2 2.5 ng/mL)
class_label: Low
--
compound: CCN(c1cc(-c2ccc(CN3CCOCC3)cc2)cc(C(=O)NCc2c(C)cc(C)[nH]c2=O)c1C)C1CCOCC1 [Tazemetostat] (max concentration tested 10000 nM)
test_target: normal primary NK cells, pool 2 (3 donors) (IL-2 2.5 ng/mL)
class_label: Low

Please turn your attention to the following entry.
Qu. // return the class label for c1cc(CN2CCCNCCNCCCNCC2)ccc1CN1CCCNCCNCCCNCC1 [Plerixafor] (max concentration tested 10000 nM)
Ans. Low
